experiment_summary: Apparent permeability from apical side to basolateral side in human Caco2 cells at 20 uM by LC-MS/MS method
Type: ADME, cell-based
condition_summary: Caco-2
experimental_endpoint: Papp A→B at 20 µM (×10⁻⁶ cm/s)

P = CNc1ccc2cc(C(=O)N(Cc3ccc(-c4ccc(N(C)C)cc4)cc3)c3cccc(/C=C/C(=O)OC)c3)ccc2c1
Q = COC(=O)/C=C/c1cccc(N(Cc2ccc(-c3ccc(N(C)C)cc3)cc2)C(=O)C2CCCCC2)c1 [FEXARAMINE]
Exercise: P or Q : whose Papp A→B at 20 µM is greater? To answer, give the label that identifies your chosen option.
Key: Q

----------
experiment_summary: Efflux ratio in human Caco2 cells at 50 uM by LC-MS/MS method
Type: ADME, cell-based
condition_summary: Caco-2
experimental_endpoint: efflux ratio at 50 µM

P = CNc1ccc2cc(C(=O)N(Cc3ccc(-c4ccc(N(C)C)cc4)cc3)c3cccc(/C=C/C(=O)OC)c3)ccc2c1
Q = COC(=O)/C=C/c1cccc(N(Cc2ccc(-c3ccc(N(C)C)cc3)cc2)C(=O)C2CCCCC2)c1
Exercise: Hey, which is lower on measured efflux ratio at 50 µM, P or Q ? Indicate which entry you chose by stating its label.
Key: P
(P: 0.77, Q: 1.14)

----------
experiment_summary: Apparent permeability from basolateral to apical side in human Caco2 cells at 20 uM by LC-MS/MS method
Assay type: ADME, cell-based
condition_summary: Caco-2
experimental_endpoint: Papp B→A at 20 µM (×10⁻⁶ cm/s)

P = CNc1ccc2cc(C(=O)N(Cc3ccc(-c4ccc(N(C)C)cc4)cc3)c3cccc(/C=C/C(=O)OC)c3)ccc2c1
Q = COC(=O)/C=C/c1cccc(N(Cc2ccc(-c3ccc(N(C)C)cc3)cc2)C(=O)C2CCCCC2)c1 [FEXARAMINE]
Exercise: compare P and Q ; which one has the greater Papp B→A at 20 µM? To answer, give the label that identifies your chosen option.
Key: Q
